Where do the numbers come from? From BindingDB's records for doi:10.1021/acs.jmedchem.9b00781.

Assay: Inhibition of RNA-dependent RNA polymerase in ZIKV SL0612 infected in African green monkey Vero cells assessed as reduction in virus-induced cytopathic effect measured after 96 hrs post-infection by MTS assay
readout label: EC50

Some compounds with recorded EC50:
{"smiles str": "O=c1ccn([C@H]2[C@H](O)[C@H](O)[C@@H](CO)[C@@H]2F)c(=O)[nH]1", "result": "> 100 µM"}
{"smiles str": "CC(C)OC(=O)[C@H](C)N[P@](=O)(OC[C@@H]1[C@@H](O)[C@@H](O)[C@H](n2ccc(=O)[nH]c2=O)[C@@H]1F)Oc1ccccc1", "result": "> 100 µM"}
{"smiles str": "CC(C)OC(=O)[C@H](C)N[P@](=O)(OC[C@@H]1[C@@H](O)[C@@H](O)[C@H](n2cnc3c(N)ncnc32)C1(F)F)Oc1ccccc1", "result": "1.75 µM"}
{"smiles str": "O=c1ccn([C@H]2[C@H](O)[C@H](O)[C@@H](CO)C2(F)F)c(=O)[nH]1", "result": "> 100 µM"}
{"smiles str": "Nc1ccn([C@H]2[C@H](O)[C@H](O)[C@@H](CO)C2(F)F)c(=O)n1", "result": "> 100 µM"}
{"smiles str": "Nc1ncnc2c1ncn2[C@H]1[C@H](O)[C@H](O)[C@@H](CO)C1(F)F", "result": "0.26 µM"}
{"smiles str": "O=c1ccn([C@H]2[C@H](O)[C@H](O)[C@@H](CO)[C@H]2F)c(=O)[nH]1", "result": "> 100 µM"}

Consider now this further compound.
For "Nc1ccn([C@H]2[C@H](O)[C@H](O)[C@@H](CO)[C@H]2F)c(=O)n1" , what is its reported EC50? > 100 µM
